Where these numbers come from: PubChem BioAssay (NCI)

System: MOLT-4 leukemia
MEASUREMENT_NOTES: NCI tumour cell line growth inhibition, 48 h
MEASURED_ATTRIBUTE: TGI

Sample answers from the record:
What value of TGI has been recorded for this entry: CC(=O)Nc1ccc(C(=O)N2N=C(C)/C(=C/c3ccccc3O)C2=O)cc1
> 100 µM

What value of TGI has been recorded for this entry: O=C(/C=C/c1ccc(OCC(=O)N2CCN(c3ccccc3)CC2)cc1)c1ccc(Cl)cc1
> 100 µM

What value of TGI has been recorded for this entry: CCCCCCCCCCC[N+]1(Cc2ccccc2)CC2CCN(Cc3ccccc3)CC2C1 (stereo unspecified)
1.25 µM

What value of TGI has been recorded for this entry: Clc1ccc(Cc2nc3ccccc3nc2-c2cccc(Cl)c2)cc1
6.82 µM

Next:
What value of TGI has been recorded for this entry: CCOC(=O)CC(=O)Sc1ccccc1
72.6 µM

What value of TGI has been recorded for this entry: C#Cc1cccc(Nc2ncnc3cc(OCCOC)c(OCCOC)cc23)c1
> 100 µM

What value of TGI has been recorded for this entry: COc1ccc(/C=C/C(=O)c2cc3c(N)c(C(=O)Nc4ccccc4Cl)sc3nc2C)cc1
> 50 µM

What value of TGI has been recorded for this entry: O=C(NCCNCCO)N/N=C/c1ccccc1
> 100 µM

###

Tested on: SNB-19 CNS
MEASUREMENT_NOTES: NCI tumour cell line growth inhibition, 48 h; in the data active = GI50 below about 0.43 µM; inactive = the rest
Just give me one of these, please: active, inactive

Please share the test call associated with CC12CCC3C(CC=C4CC(O)CCC43C)C1C/C(=C\N1CCCC1)C2=O (centres undefined) .
inactive

Please share the test call associated with C1CC[N-]CC1.C1CC[N-]CC1.C1CC[N-]CC1.C1CC[N-]CC1.[Cl][Rh][Cl] .
inactive

Please share the test call associated with CSc1nc2c(c(=O)[nH]1)N=C1c3ccccc3C(=O)C1C(c1ccc(F)cc1)N2 (centres undefined) .
inactive

Next:
Please share the test call associated with O=Cc1c(-c2cc(O)ccc2O)nc2sccn12 .
inactive

Please share the test call associated with CC1=C(/C=C/C(C)=C\C=C\C(C)=C\C(=O)Nc2ccc3c(c2)OCO3)C(C)(C)CCC1 .
inactive

###

Test system: SK-MEL-2 melanoma
MEASUREMENT_NOTES: NCI tumour cell line growth inhibition, 48 h
MEASURED_ATTRIBUTE: TGI

Sample answers from the record:
What value of TGI has been recorded for this entry: Cc1cc(=O)[nH]c(NN2C(Cl)C(=O)C2c2ccco2)n1 (stereo not drawn)
99.7 µM

What value of TGI has been recorded for this entry: Cc1cc(C)c(C#N)c(SC(=S)NC(=O)c2ccccc2)n1
> 100 µM

What value of TGI has been recorded for this entry: O=C1C(Cl)C(c2cccc(O)c2)N1n1cnc2ccccc2c1=O (stereo not drawn)
> 100 µM

What value of TGI has been recorded for this entry: COC(=O)NC(Nc1ccc(C)cc1)(C(F)(F)F)C(F)(F)F
> 100 µM

What value of TGI has been recorded for this entry: Cc1cc2nc3c(N)nn(CCN(C)C)c3nc2cc1C
> 100 µM

What value of TGI has been recorded for this entry: Cc1ccc(NC(=O)CC2C(=O)Nc3ccccc3S2=O)cc1C (stereo not drawn)
> 100 µM

Next:
What value of TGI has been recorded for this entry: COP(=O)(OC)C(NC(c1ccccc1)c1ccccc1)c1ccc2c(c1)OCO2 (stereo not drawn)
50.2 µM

What value of TGI has been recorded for this entry: Cn1cnc(/C=C/C#N)c1
> 100 µM

What value of TGI has been recorded for this entry: Nc1ccc2c(SCCSc3c4ccccc4nc4cc(N)ccc34)c3ccccc3nc2c1
> 100 µM

What value of TGI has been recorded for this entry: CCOC(=O)CC(=O)Sc1ccccc1
67.9 µM

What value of TGI has been recorded for this entry: OC1(C(O)(c2ccc(-c3ccccc3)cc2)c2ccc(-c3ccccc3)cc2)CCCCC1
> 100 µM

What value of TGI has been recorded for this entry: O=c1n(C2CCCCC2)c(=C(Cl)Cl)c(=C(Cl)Cl)n1C1CCCCC1
> 100 µM

What value of TGI has been recorded for this entry: CCCOC1OC(CS(=O)(=O)O)C(OC(C)=O)C(OC(C)=O)C1OC(C)=O (stereo not drawn)
> 100 µM

What value of TGI has been recorded for this entry: Cc1sc2nc3n(sc4nc5sc(C)c(C)c5c(=O)n43)c(=O)c2c1C
> 100 µM

What value of TGI has been recorded for this entry: CC(=O)OCC1(CNc2nc(N)ncc2C#N)CC(CCc2ccccc2)C1 (stereo not drawn)
> 100 µM

What value of TGI has been recorded for this entry: O=C1CCc2cc3c(cc21)C(C(=O)O)CC3 (stereo not drawn)
> 100 µM

What value of TGI has been recorded for this entry: NC(=O)c1cnc(N[C@@H]2CCCC[C@@H]2N)nc1Nc1cccc(-n2nccn2)c1
15.2 µM

What value of TGI has been recorded for this entry: COc1cc2oc(=O)ccc2cc1C1OC(=O)C2OC21C (stereo not drawn)
> 100 µM

What value of TGI has been recorded for this entry: S=c1oc(CCCCCCCCc2nn(CNc3ccc(Cl)cc3)c(=S)o2)nn1CNc1ccc(Cl)cc1
> 100 µM

What value of TGI has been recorded for this entry: O=c1cnc2cc3ccccc3cc2[nH]1
> 100 µM

What value of TGI has been recorded for this entry: CC1=C([Se]CC(OC(=O)CC[Se]c2ccccc2)C(=O)NCCCCCC(=O)OCc2ccccc2)C(=O)c2ccccc2C1=O (stereo not drawn)
9.96 µM

What value of TGI has been recorded for this entry: Cc1cn(C2CC(SCCO)C(CO)O2)c(=O)[nH]c1=O (stereo not drawn)
> 100 µM

What value of TGI has been recorded for this entry: O=C1/C(=C(/Br)I)c2ccccc2-c2ccccc21
31.5 µM
